Subject of test: Hypoxanthine-guanine phosphoribosyltransferase (Homo sapiens, UniProt P00492)
Sequence (P00492 whole entry): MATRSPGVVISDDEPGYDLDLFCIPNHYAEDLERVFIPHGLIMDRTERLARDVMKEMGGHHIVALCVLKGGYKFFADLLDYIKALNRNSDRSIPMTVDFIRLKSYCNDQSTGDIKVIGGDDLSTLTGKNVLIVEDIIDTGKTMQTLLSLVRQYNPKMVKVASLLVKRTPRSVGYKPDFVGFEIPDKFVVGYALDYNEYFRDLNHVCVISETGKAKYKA
Procedure text: Inhibition of human HGPRT using xanthine/PRPP assessed as xanthine/guanine conversion to […]guanosine-5'-monophosphate by spectrophotometry in presence of PRPP
Let's look at some compounds and their measured Ki.

> print(dat)
                                   compound                           subject.of.test  endpoint      val
1     O=c1[nH]cnc2c(CNCCOP(=O)(O)O)c[nH]c12  Hypoxanthine-guanine phosphoribosyltransferase (Homo sapiens, UniProt P00492)        Ki  > 10 µM
2    O=c1[nH]cnc2c(CNCCCCP(=O)(O)O)c[nH]c12  Hypoxanthine-guanine phosphoribosyltransferase (Homo sapiens, UniProt P00492)        Ki  > 10 µM
3  O=c1[nH]cnc2c(CNC(CO)COP(=O)(O)O)c[nH]c12 (racemic)  Hypoxanthine-guanine phosphoribosyltransferase (Homo sapiens, UniProt P00492)        Ki  > 10 µM
4    O=c1[nH]cnc2c(CCNCCCP(=O)(O)O)c[nH]c12  Hypoxanthine-guanine phosphoribosyltransferase (Homo sapiens, UniProt P00492)        Ki  11.3 µM
5  O=c1[nH]cnc2c(CNC(CO)(CO)COP(=O)(O)O)c[nH]c12  Hypoxanthine-guanine phosphoribosyltransferase (Homo sapiens, UniProt P00492)        Ki  > 10 µM
6  O=c1[nH]c(Cl)nc2c(CNC(CO)COP(=O)(O)O)c[nH]c12 (racemic)  Hypoxanthine-guanine phosphoribosyltransferase (Homo sapiens, UniProt P00492)        Ki  > 10 µM

Hello, please tell me recorded Ki for this one: O=c1[nH]cnc2c(CNCP(=O)(O)O)c[nH]c12
> 10 µM

Supply reported Ki belonging to this compound: O=c1[nH]cnc2c(CNCCCP(=O)(O)O)c[nH]c12
4.9 µM

Check the records and state Ki for O=c1[nH]cnc2c(CN[C@H](CO)COP(=O)(O)O)c[nH]c12
> 10 µM

Look up and state reported Ki for O=c1[nH]cnc2c(CNCCCP(=O)(O)O)n[nH]c12
> 10 µM
